# targetOrSystem: T1, recombinant human ROR1 protein (Fc-Tag, Acro Biosystems RO1-H5250) (human, UniProt Q01973 30-406)
# T1 construct: Bought; also called hROR1; recombinant human ROR1 ECD; not shown: Fc tag
# assay: SPR; hROR1-Fc immobilized
measurementLabel: koff (s⁻¹)
Please state the figure in s⁻¹; there is no need to write the unit.

So, PRO2060 (scFv, V domains shown, scFv (Full graft); also called 55-38-D07-sc02) VH: QSQVVESGGGLVQPGGSLRLSCAVSGFDLSSYAVSWVRQAPGKGLEWIGIIYPRANTYYASWAKGRFTISKDNSKNTVYLQMNSLRAEDTAVYFCARDRYDSGAYLYTTYFNLWGQGTLVTVSS VL: DVQMTQSPSSLSASVGDRVTITCRASENIYSGLAWYQQKPGKPPKLLIYRASTLASGVSSRFSGSGSGTDFTLTISSLQPEDFATYYCQGGYYSSSSTYIAFGTGTKVTVLG ? Its koff was 9.56e-05
